system: B16-F0; assay: Cytotoxicity assay G50, MTT or resazurin (Example 29); format: cell-based; conditions: Mus musculus, B16F0; cell line B16-F0
pIC50 values for the molecules below.
Notebook: values listed as pIC50 are -log10 of the concentration (mol/L).

Solved cases (8 shown):
>>> readout_number("CCCCCCCc1ccc(NC(=O)N[C@@H](C)CCl)cc1")
5.18
>>> readout_number("CCCCCCOc1ccc(NC(=O)N[C@@H](CC)CCl)cc1")
5.08
>>> readout_number("CCCCCCOc1ccc(NC(=O)N[C@H](C)CCl)cc1")
5.20
>>> readout_number("CCCCCCOc1ccc(NC(=O)N[C@@H](C)CCl)cc1")
5.07
>>> readout_number("CCCCCCCc1ccc(NC(=O)N[C@H](CC)CCl)cc1")
5.43
>>> readout_number("CCCC(CCl)NC(=O)Nc1ccc(C2CCCCC2)cc1 (racemic)")
5.38
>>> readout_number("CCCCCCCc1ccc(NC(=O)N[C@@H](CC)CCl)cc1")
5.32
>>> readout_number("COc1ccc(NC(=O)N[C@H](C)CCl)cc1OC")
4.58

## Task Supply pIC50 value. Item: CCCCCCCc1ccc(NC(=O)N[C@H](C)CCl)cc1
## Result 5.42

====

C50 (concentration needed to kill 50% of the cellular population present at the beginning) values for the compounds below.
tested on: B16-F0; assay: Cytotoxicity assay C50/G50, MTT or resazurin (Example 16); type: cell-based; conditions: day-3
Give the number; µM is assumed, so skip it.

Solved cases (4 shown):
>>> readout_number("CCCCCCc1ccc(NC(=O)N[C@@H](C)CCl)cc1")
18.2
>>> readout_number("C[C@H](CCl)NC(=O)Nc1ccc(C2CCCCC2)cc1")
17.4
>>> readout_number("CCCCCCc1ccc(NC(=O)NC(CCl)CCC)cc1 (racemic)")
21.3
>>> readout_number("CC[C@H](CCl)NC(=O)Nc1ccc(C2CCCCC2)cc1")
21.5

Now for another entry.
## Task Supply C50 (concentration needed to kill 50% of the cellular population present at the beginning) value. Item: CCCCCCc1ccc(NC(=O)N[C@@H](CC)CCl)cc1
## Result 18.3

====

system: B16-F0; assay: Cytotoxicity assay C50/G50, MTT or resazurin (Example 16); type: cell-based; conditions: day-3
C50 (concentration needed to kill 50% of the cellular population present at the beginning) values for the compounds below.
Give the number; µM is assumed, so skip it.

## Task Supply C50 (concentration needed to kill 50% of the cellular population present at the beginning) value. Item: CCCCCCc1ccc(NC(=O)N[C@H](CC)CCl)cc1 [Example 10]
## Result 24.9

## Task Supply C50 (concentration needed to kill 50% of the cellular population present at the beginning) value. Item: CCCCCCc1ccc(NC(=O)N[C@H](C)CCl)cc1 [Example 6]
## Result 31.3

## Task Supply C50 (concentration needed to kill 50% of the cellular population present at the beginning) value. Item: C[C@@H](CCl)NC(=O)Nc1ccc(C2CCCCC2)cc1 [Example 8]
## Result 22.1

## Task Supply C50 (concentration needed to kill 50% of the cellular population present at the beginning) value. Item: CC[C@@H](CCl)NC(=O)Nc1ccc(C2CCCCC2)cc1 [Example 13]
## Result 17.7

====

test system: B16-F0; experiment: Cytotoxicity assay G50, MTT or resazurin (Example 29); assay type: cell-based; settings: Mus musculus, B16F0; cell line B16-F0
MEASURE NAME: IC50

Solved cases (2 shown):
>>> result("CC[C@H](CCl)NC(=O)Nc1ccc(OC)c(OC)c1")
"> 100 µM"
>>> result("COc1ccc(NC(=O)N[C@@H](C)CCl)cc1OC")
"> 100 µM"

## Task Supply IC50 value. Item: CC[C@@H](CCl)NC(=O)Nc1ccc(OC)c(OC)c1
## Result > 100 µM
